- system_under_test: FAD-linked sulfhydryl oxidase ALR (Homo sapiens) (UniProt P55789)
- Sequence (P55789 whole entry, looked up): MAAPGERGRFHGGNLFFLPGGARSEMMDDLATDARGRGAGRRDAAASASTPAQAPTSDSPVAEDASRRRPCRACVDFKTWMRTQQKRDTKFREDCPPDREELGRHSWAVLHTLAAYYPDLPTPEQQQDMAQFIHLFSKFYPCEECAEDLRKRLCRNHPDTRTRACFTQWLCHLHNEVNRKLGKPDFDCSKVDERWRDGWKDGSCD
- test_details: ALR-catalysed DTT oxidation blockers – biochemical, H2O2 detection, HRP-luminol luminescence, single point, primary screen (AID 485317)
- test_settings: purified ALR, stronger effect = higher value, concentration not given here
Out of some 290,000 compounds screened, about 11,000 (3.8%) were called active. Only a selection was taken, and actives are over-represented in it overall.
This section presents compounds with their documented inhibition values.
result_type: inhibition (%)

INSERT INTO results (compound, measurement) VALUES
  ('CCCCNC(=O)Nc1c(C)cc(SC#N)cc1C', 96.7),
  ('O=C(NCC1CCCO1)c1cc(-c2ccccc2)nc2ccccc12 (stereo not drawn)', -3.93),
  ('Cc1cc(C(=O)OCC(=O)Nc2nccs2)c2ccccc2n1', -1.42),
  ('Cc1cc(=O)oc2cc(OCCC[n+]3ccccc3)ccc12', -10.6),
  ('COc1ccc(/C=C2\SC(=O)N(CCC(=O)NC3CCS(=O)(=O)C3)C2=O)cc1 (stereo not drawn)', -3.27),
  ('Cc1noc(C)c1COc1ccccc1C(=O)N(C)CC(=O)Nc1cccc(F)c1', -3.03),
  ('COc1ccccc1-c1sc2ccccc2c1C#CC1(O)CCCCC1', -3.52),
  ('CCOc1cc(/C=C2\C(=N)N3N=C(C)SC3=NC2=O)ccc1OCCOc1ccccc1', -3.65),
  ('CCOc1cc(/C=C2\SC(N3CCCC(C)C3)=NC2=O)ccc1O (stereo not drawn)', 98),
  ('CCCCn1c(N)c(N(CCC(C)C)C(=O)CC2OC(=O)c3ccccc32)c(=O)[nH]c1=O (stereo not drawn)', -12.6),
  ('COc1ccc(NC(=O)CSc2nnc(C3CC3)n2C)cc1S(=O)(=O)N1CCCCC1', -0.755),
  ('C=CC[C@H](CC(=O)N(CCO)Cc1ccccc1)C(=O)N[C@@H](COC(=O)[C@@H](CC=C)Cc1ccc(F)cc1)Cc1ccccc1', -4.83),
  ('COc1ccc(C2CC(c3cccs3)=NN2c2ccc(F)cc2)cc1OC (stereo not drawn)', -1.9),
  ('CCn1c(SCC(=O)Nc2nccs2)nnc1-c1ccco1', -4.02),
  ('COc1ccc(NC(=O)CSc2nncc(=O)n2N)cc1OC', 87),
  ('O=C(c1cn(-c2ccccc2)nc1-c1cccnc1)N1CCN(S(=O)(=O)c2ccccc2F)CC1', -0.713),
  ('COc1ccc(S(=O)(=O)N2CCN(CC(=O)NCC3(N4CCOCC4)CCCCC3)CC2)cc1', -0.676),
  ('CCn1c(SCC(=O)Nc2ccc(OC)c(OC)c2)nnc1-c1c[nH]c2ccccc12', -15.3),
  ('COc1ccc(C(=O)OCC(=O)c2cc(C)n(CC3CCCO3)c2C)cc1[N+](=O)[O-] (stereo not drawn)', -3.78),
  ('CC1CCN(C2=NC(=O)/C(=C/c3ccc(O)cc3)S2)CC1', 98.6),
  ('CC1CCN(C(=O)COC(=O)c2cc(=O)[nH]c3ccccc23)CC1', 2.67),
  ('CCCCC/C=C/C1=CC(=O)C[C@H](c2ccc(Cl)cc2)C1', 5.58),
  ('O=C(CNC(=O)c1ccccc1F)OCC(=O)c1c[nH]c2ccccc12', -4.95),
  ('CCOc1cc(C(=S)N2CCOCC2)ccc1O', 2.75),
  ('COc1ccccc1C(=O)NCC(=O)OCC(=O)NNC(=O)c1ccc(Br)cc1', 0.892),
  ('O=C1N[C@H](Cc2ccccc2)C(=O)N[C@H]1Cc1cn(S(=O)(=O)c2ccccc2)c2ccccc12', -2.64),
  ('COc1ccc(NC(=O)CSc2nc3ccccc3c(=O)n2C)cc1', -13.7),
  ('Cc1cc(-c2nnc(SCC(=O)Nc3ccc(F)cc3)n2N)n[nH]1', -1.02),
  ('CCCCNC(=O)C(=O)c1ccccc1NC(C)=O', -1.84),
  ('COc1cc(/C=C(\C#N)C(=O)Nc2ccc3ccccc3c2)c([N+](=O)[O-])cc1OC', -17.7),
  ('CCc1ccc(CN(C)C(=O)CCc2nnc(-c3ccc(-c4ccccc4)cc3)o2)nc1', -6.23),
  ('Cc1ccsc1/C=C1\SC(N2CCOCC2)=NC1=O', -15.8),
  ('Cc1[nH]c2ccccc2c1SCC(=O)Nc1nccs1', 97.1),
  ('COc1ccc(C2CC(c3cccs3)=NN2C(=O)CCC(=O)O)cc1OC (stereo not drawn)', 5.58),
  ('Cc1cc(C(=O)NNC(=O)c2ccccc2O)c(C)o1', 1.52),
  ('O=S(=O)(NCCCc1ccccc1)c1ccc(Br)cc1', 2.4),
  ('Cc1cc(=O)oc2cc(OCC3CC(c4ccccc4Cl)=NO3)ccc12 (stereo not drawn)', 97.9),
  ('O=C(CSc1nnnn1-c1ccc2c(c1)CCC2)Nc1ccc2c(c1)OCCO2', -26.1),
  ('COc1ccccc1N1N=C(c2cccs2)CC1c1ccccc1 (stereo not drawn)', 97.2),
  ('O=C(CCCCO)c1ccc(O)c(Cl)c1', 7.83),
  ('CC(C(=O)NC1CCS(=O)(=O)C1)N1C(=O)/C(=C/c2ccc(Cl)cc2)SC1=S (stereo not drawn)', 98.5),
  ('CN(C(=O)CN1C(=O)/C(=C/c2ccc(Cl)cc2)SC1=S)C1CCS(=O)(=O)C1 (stereo not drawn)', -8.19),
  ('CC[C@@]12C(=O)N(c3ccccc3)C(=O)N1[C@H](c1ccc(Br)cc1)[C@@H]1C(=O)N(C(C)(C)C)C(=O)[C@@H]12', -9.54);
